Readings of cell count for the listed compounds
# Method: inhibitors of TNFa-induced NFkB p65 translocation, primary screen, imaging, HUVEC, MLSMR starter and 10KST1 sets (AID 438);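 further: compound added about 3h40 before a 20 min TNFalpha stimulation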
# Conditions Used: HUVEC TNFa-induced p65 nuclear translocation; measured here: nuclei count (cytotoxicity indicator), at 2.08 µM
Answer with a bare number; do not write a unit.

What value of measured cell count is listed for COc1ccccc1NC(=O)Nc1nnc(C(C)C)s1 ? 702

----------
# Study System: Alpha-2C adrenergic receptor (Homo sapiens) (UniProt P18825)
# Sequence (P18825 whole entry, looked up): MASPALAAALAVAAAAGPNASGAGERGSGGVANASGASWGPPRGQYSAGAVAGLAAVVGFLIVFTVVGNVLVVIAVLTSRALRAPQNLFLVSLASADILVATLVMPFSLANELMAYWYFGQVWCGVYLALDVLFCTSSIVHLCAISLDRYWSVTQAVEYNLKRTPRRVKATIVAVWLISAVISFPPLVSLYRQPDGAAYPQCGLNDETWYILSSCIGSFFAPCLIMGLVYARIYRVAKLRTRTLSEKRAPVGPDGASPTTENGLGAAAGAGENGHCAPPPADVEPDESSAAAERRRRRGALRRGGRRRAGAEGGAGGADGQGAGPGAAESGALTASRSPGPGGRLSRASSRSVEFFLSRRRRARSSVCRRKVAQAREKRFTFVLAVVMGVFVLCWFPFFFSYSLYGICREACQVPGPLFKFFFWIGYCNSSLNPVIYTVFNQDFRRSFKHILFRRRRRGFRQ
# Method: modulators of alpha2C/GIRK thallium flux, primary screen, cell-based, HEK293 alpha2C/GIRK1/2 (AID 624);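 further: slope of fluorescence ratio to pre-addition baseline per second over 15 to 24 s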
# Conditions Used: thallium flux BTC fluorescence, at 10 µM, actives lie on both sides
Readings of slope for the listed compounds
Answer with a bare number; do not write a unit.

The following compounds have reported results that may help.
# Compound, Study System, Reported Result
records = [
    ("CCC(C)NC(=O)C1(C)CCC(=O)N1CCc1ccc(OC)c(OC)c1 (stereo unspecified)", "Alpha-2C adrenergic receptor (Homo sapiens) (UniProt P18825)", 0.00621),
    ("COc1ccccc1-n1c(C)nnc1SCC(=O)Nc1cccc(C(C)=O)c1", "Alpha-2C adrenergic receptor (Homo sapiens) (UniProt P18825)", 0.00484),
]

What value of measured slope is listed for CC(NC(=O)c1noc2c1CCCCC2)c1ccccc1 (stereo unspecified) ? 0.00631

What value of measured slope is listed for Cc1nc(NC(=O)c2ccccc2)sc1-c1csc(NCc2ccco2)n1 ? 0.0038

What value of measured slope is listed for CC(C)(C)c1nnc(NC(=O)C2CCN(c3ncccn3)CC2)s1 ? 0.00755

----------
# Method: inhibitors of TNFa-induced NFkB p65 translocation, primary screen, imaging, HUVEC, MLSMR starter and 10KST1 sets (AID 438);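 further: compound added about 3h40 before a 20 min TNFalpha stimulation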
# Conditions Used: HUVEC TNFa-induced p65 nuclear translocation; measured here: nuclei count (cytotoxicity indicator), at 2.08 µM
Outcome label depends on cell count relative to 500: at/above gives met, below gives not met.

Worked set:
# Compound, Class Assignment
measured = [
    ("COC(=O)c1ccc(CNC(=O)CSc2nc3sc(C)c(C)c3c(=O)n2C)o1", "not met"),
    ("O=C1NC(Nc2ccccn2)(C(F)(F)F)C(=O)N1c1ccc(F)cc1 (stereo unspecified)", "not met"),
    ("CC1=C(C(=O)Nc2ccccc2)C(c2ccco2)C(C#N)=C(SCC(=O)Nc2cccc(C)c2C)N1 (stereo unspecified)", "met"),
    ("CCc1nc(N2CCCC2)c(C#N)c2c1CCCC2", "not met"),
    ("O=C(O)c1ccnc(C(=O)O)c1", "met"),
]

Turning now to a further record.
Determine whether this compound has cell count no lower than 500: CC1Cn2c(nnc2-c2ccc(F)cc2)S1 (stereo unspecified) met

----------
# Study System: Voltage-gated potassium channel subunit beta-2 (Rattus norvegicus)
# Method: KvBeta positive modulators, primary screen, biochemical, NADPH fluorescence (AID 623);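 further: fluorescence intensity change per second fitted from 20 to 320 s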
# Conditions Used: Recombinant KvBeta, NADPH fluorescence decrease slope, 10 min; at 10 µM; stronger effect = lower value
Property: NADPH fluorescence slope
Answer with a bare number; do not write a unit.

# Compound, NADPH fluorescence slope
measured = [
    ("CCCc1cc(Nc2c(C)n(C)n(-c3ccccc3)c2=O)n2c(nc3ccccc32)c1C#N", "-2.2e-05"),
    ("CCC1CCCCN1CCCNC(=O)CC1Oc2ccc(C)cc2NC1=O (stereo not drawn)", "-3.5e-05"),
    ("O=C1C2ON(c3ccccc3)C(c3cccnc3)C2C(=O)N1c1ccc(Cl)c(Cl)c1 (stereo not drawn)", "-2.8e-05"),
]

What value of measured NADPH fluorescence slope is listed for CCC(C)NC(=O)CC1Oc2ccc(C)cc2NC1=O (stereo not drawn) ? -1.5e-05

What value of measured NADPH fluorescence slope is listed for CN1CCN(Cc2c(O)c(Cl)cc3c(-c4ccccc4)cc(=O)oc23)CC1 ? -2.2e-05

What value of measured NADPH fluorescence slope is listed for Cc1nc2cc(Cl)ccc2n1CCO ? -1.6e-05

What value of measured NADPH fluorescence slope is listed for O=c1[nH]c(CN(CCO)CCO)nc2c1C1(CCCCC1)Cc1ccccc1-2 ? -5.1e-05

What value of measured NADPH fluorescence slope is listed for CCOC(=O)C1=C(N)n2c(s/c(=C\c3ccco3)c2=O)=C(C(=O)OC(C)C)C1c1ccco1 (stereo not drawn) ? -7.4e-05

----------
# Method: inhibitors of E-selectin induction by TNFa, primary screen, imaging, HUVEC, immunofluorescence, MLSMR starter and 10KST1 sets (AID 487);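 further: signal is fraction of cell area covered by stained E-selectin grains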
# Conditions Used: HUVEC TNFalpha-induced E-selectin immunofluorescence imaging, at 2 µM; stronger effect = higher value
Outcome label depends on inhibition relative to -10%: at/above gives Criterion met, below gives Criterion not met.

Worked set:
# Compound, Class Assignment
records = [
    ("COc1ccc(N2C(=O)C3C(C2=O)C2C=CC3C23CC3)c(OC)c1 (stereo unspecified)", "Criterion met"),
    ("CSc1nc(N)nc(SCC(=O)C23CC4CC(CC(C4)C2)C3)c1C#N", "Criterion not met"),
    ("COc1cc(C(O)c2nc3ccccc3n2C)cc(OC)c1OC (stereo unspecified)", "Criterion not met"),
    ("CCc1ccc(CN(C)CCc2ccccn2)cc1", "Criterion not met"),
    ("Nc1nc(-c2ccc(Cl)cc2)nn1C(=O)c1cccnc1", "Criterion met"),
    ("Cc1noc(C)c1COC(=O)c1ccccc1Oc1ccccc1", "Criterion not met"),
    ("Cc1nc2sc(C(c3cccs3)N3CC(C)CC(C)C3)c(O)n2n1 (stereo unspecified)", "Criterion not met"),
    ("COc1cccc(-c2nc(CS(=O)(=O)CC(=O)N3CCc4ccccc4C3)c(C)o2)c1", "Criterion not met"),
]

Determine whether this compound has inhibition no lower than -10%: O=C(CN(C(=O)CCC(=O)Nc1nccs1)c1ccccc1F)NCC1CCCO1 (stereo unspecified) Criterion not met

Determine whether this compound has inhibition no lower than -10%: C=C(C)Cn1c(N2CC(C)CC(C)C2)nc2c1c(=O)[nH]c(=O)n2C (stereo unspecified) Criterion met

Determine whether this compound has inhibition no lower than -10%: CC1(C)Cc2ccccc2-c2c1c(=O)n(-c1ccccc1)c1nnnn21 Criterion not met

----------
# Study System: Voltage-gated potassium channel subunit beta-2 (Rattus norvegicus)
# Method: KvBeta positive modulators, primary screen, biochemical, NADPH fluorescence (AID 623);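 further: fluorescence intensity change per second fitted from 20 to 320 s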
# Conditions Used: Recombinant KvBeta, NADPH fluorescence decrease slope, 10 min; at 10 µM; stronger effect = lower value
Property: NADPH fluorescence slope
Answer with a bare number; do not write a unit.

The following compounds have reported results that may help.
# Compound, NADPH fluorescence slope
data = [
    ("O=C(/C=C1\\NC2(CCCC2)Cc2ccccc21)N1CCOCC1", "-4.8e-05"),
    ("CCC(C)(C)n1nnnc1C(c1ccncc1)N1CCN(c2cccc(OC)c2)CC1 (stereo unspecified)", "-2e-05"),
    ("COc1nnnc2c1sc1nc(N3CCOCC3)c3c(c12)CC(C)(C)OC3", -0.000107),
]

What value of measured NADPH fluorescence slope is listed for CCOC(=O)c1[nH]nc(N)c1NC(=O)c1ccc(Cl)cc1Cl ? 8.2e-05

What value of measured NADPH fluorescence slope is listed for CCOC(=O)CNC(=O)CNC(=O)c1ccc(OCC(C)C)cc1 ? -5.4e-05

What value of measured NADPH fluorescence slope is listed for CCc1cc(=O)oc2cc(OC(C)=O)cc(OC(C)=O)c12 ? 2.1e-05

----------
Readings of cell count for the listed molecules
# Method: inhibitors of TNFa-induced NFkB p65 translocation, primary screen, imaging, HUVEC, MLSMR starter and 10KST1 sets (AID 438);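 further: compound added about 3h40 before a 20 min TNFalpha stimulation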
# Conditions Used: HUVEC TNFa-induced p65 nuclear translocation; measured here: nuclei count (cytotoxicity indicator), at 2.08 µM
Answer with a bare number; do not write a unit.

What value of measured cell count is listed for Nc1nc2n(n1)C(c1cccc(Br)c1)CC(c1ccc(F)cc1)N2 (stereo not given) ? 886

What value of measured cell count is listed for COC(=O)c1sc(S(=O)(=O)NCc2cccs2)c(C(=O)OC)c1C ? 608

What value of measured cell count is listed for O=c1[nH]c(N2CCc3ccccc32)nc2c1CCCC2 ? 309

What value of measured cell count is listed for CCn1cc(C(=O)N2CCOCC2)c(=O)c2cc(S(=O)(=O)N(C)C3CCCCC3)ccc21 ? 518

What value of measured cell count is listed for CCOC(=O)C1=C(c2ccccc2)NC(=O)NC1c1ccc(N(C)C)cc1 (stereo not given) ? 363

----------
Readings of inhibition for the listed compounds
# Method: inhibitors of TNFa-induced NFkB p65 translocation, primary screen, imaging, HUVEC, MLSMR starter and 10KST1 sets (AID 438);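 further: compound added about 3h40 before a 20 min TNFalpha stimulation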;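 on inhibition: signal is the nuclear over cytoplasmic p65 intensity ratio per well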
# Conditions Used: HUVEC TNFa-induced p65 nuclear translocation; at 2 µM, stronger effect = higher value, 0% TNFa-plus-vehicle, 100% no-TNFa wells
State the answer as a number, implicitly in %.

# Compound, Unit Symbol, inhibition
records = [
    ("CCOC(=O)c1c(C)[nH]c(C(=O)COC(=O)c2ccc(F)c(S(=O)(=O)N3CCOCC3)c2)c1C", "%", 4.8),
    ("CCOC(=O)c1ccc(NC(=O)CCc2nc(-c3cccc(C)c3)no2)cc1", "%", 12.6),
    ("CC1(C(=O)CSc2n[nH]c(-c3ccccc3Cl)n2)CCC(=O)O1 (stereo unspecified)", "%", -3.4),
]

We next turn to a different compound, shown below.
What value of measured inhibition is listed for CCCCCCOc1ccc(N2C(=O)CC(N3CCN(C(=O)c4ccco4)CC3)C2=O)cc1 (stereo unspecified) ? 8.2

Source of measurements: PubChem BioAssay
